All values here come from ChEMBL document CHEMBL3988442.

targetOfAssay: Proteasome subunit beta (Trypanosoma cruzi) (UniProt O96673)
Sequence (O96673 as listed by the source): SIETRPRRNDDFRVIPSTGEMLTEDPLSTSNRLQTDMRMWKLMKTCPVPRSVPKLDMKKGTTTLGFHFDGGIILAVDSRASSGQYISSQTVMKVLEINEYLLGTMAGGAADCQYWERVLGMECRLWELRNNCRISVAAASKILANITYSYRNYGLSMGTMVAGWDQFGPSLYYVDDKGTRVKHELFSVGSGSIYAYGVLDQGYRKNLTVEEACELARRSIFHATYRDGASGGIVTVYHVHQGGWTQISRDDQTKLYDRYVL
experimentSummary: Trypanosoma cruzi proteasome chymotrypsin-like activity (TcProtChymo) assay. Further: in the data most compounds retested in dose-response had high values.
Format: functional
Design: scale not given: direction of the effect not stated beside the values
conditionLabel: 9.37 µM
# Percent Effect listing for each entry below
Kindly answer with a numeric value in %, unit omitted.

What the record says about CS(=O)(=O)NCC1CCCN(C(=O)Nc2cccnc2N2CCCC2)C1 (stereo unspecified) : Percent Effect is 16.4

What the record says about c1cnnc(N2CCCC2CNc2ncnc3ccccc23)c1 (stereo unspecified) : Percent Effect is 9.61

----------
targetOfAssay: AMP-activated protein kinase, AMPK (Homo sapiens) (UniProt P54646+O43741+P54619+Q9UGJ0+Q9Y478+Q13131+Q9UGI9)
experimentSummary: AMP-dependent Kinase enzyme assay. An in vitro enzyme assay that detects ADP turnover that is directly proportional to AMPK activity. This uses naive AMPK that is activated during the assay with MK-8722
Type: functional
Set-up: scale not given: direction of the effect not stated beside the values
conditionLabel: 30 µM
readoutType: Percent Effect (%)
Kindly answer with a numeric value in %, unit omitted.

The cases that follow already have their Percent Effect on record.
COc1ccccc1OCC(=O)Nc1ncccc1OC(F)F : -0.812
COc1cccc(CN2CCN(C(=O)CN3CCOCC3)CC2)n1 : -3.06
COc1ccc(CN2CCn3cc(CN4CCCCC4)nc3C2)cc1 : 1.83
Cc1nc(NCCc2ccc(Cl)cc2)cc(C(=O)N2CCOCC2)n1 : -3.84
Cc1cnn(CCC(=O)N2CCOC(c3nc(C(C)(C)C)n[nH]3)C2)c1 (stereo unspecified) : 7.25

What the record says about CS(=O)(=O)NCc1n[nH]c2c1CCN(C(=O)c1ccsc1)C2 : Percent Effect is 2.22

What the record says about O=C(NCc1cccc(F)c1)N1CCC2(CC(=O)N(c3ccsc3)C2)C1 (stereo unspecified) : Percent Effect is -0.642

What the record says about O=C(NCC1CC1)[C@H]1C[C@H]2OCC[C@H]2N(CCc2ccccc2)C1 : Percent Effect is 0.431

What the record says about COc1ccccc1OCc1cc(C(=O)N2CC=CC2C(C)C)n[nH]1 (stereo unspecified) : Percent Effect is -2.81

What the record says about Cc1nn(C)cc1C(=O)Nc1cccc(CN2CCC(CO)CC2)c1 : Percent Effect is -4.72

What the record says about C1CC(c2noc(C3CC3)n2)CN(Cc2noc(C3CC3)n2)C1 (stereo unspecified) : Percent Effect is -13.1

----------
# Percent Effect listing for each entry below
targetOfAssay: Tyrosyl-tRNA synthetase, putative (Trypanosoma cruzi (strain CL Brener)) (UniProt Q4DSP6)
Sequence (Q4DSP6 as listed by the source): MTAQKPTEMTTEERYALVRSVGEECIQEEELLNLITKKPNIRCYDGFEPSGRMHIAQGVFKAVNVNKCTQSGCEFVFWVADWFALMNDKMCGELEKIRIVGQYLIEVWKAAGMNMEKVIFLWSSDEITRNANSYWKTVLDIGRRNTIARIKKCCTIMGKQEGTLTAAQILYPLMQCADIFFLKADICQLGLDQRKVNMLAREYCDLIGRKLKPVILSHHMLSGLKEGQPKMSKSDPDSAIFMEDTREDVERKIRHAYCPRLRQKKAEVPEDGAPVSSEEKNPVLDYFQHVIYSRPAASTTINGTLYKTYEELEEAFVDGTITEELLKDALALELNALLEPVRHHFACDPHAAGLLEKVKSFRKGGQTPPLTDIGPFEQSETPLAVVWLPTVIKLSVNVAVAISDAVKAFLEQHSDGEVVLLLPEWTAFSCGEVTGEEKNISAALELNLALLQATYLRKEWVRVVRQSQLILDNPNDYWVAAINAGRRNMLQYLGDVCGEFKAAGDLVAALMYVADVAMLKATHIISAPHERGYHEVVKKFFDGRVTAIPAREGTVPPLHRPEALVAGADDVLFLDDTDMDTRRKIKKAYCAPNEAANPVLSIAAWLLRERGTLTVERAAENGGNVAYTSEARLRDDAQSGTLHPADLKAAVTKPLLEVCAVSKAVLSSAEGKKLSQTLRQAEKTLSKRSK
experimentSummary: Trypanosoma cruzi tyrosyl tRNA synthetase (TcYRS) _High Tyrosine SOP; further: in the data most compounds retested in dose-response had high values
Format: functional
Set-up: scale not given: direction of the effect not stated beside the values
conditionLabel: 30 µM
Kindly answer with a numeric value in %, unit omitted.

Cc1cc(C(=O)N2CCCCC2C)ccc1NCC(=O)N1CCOCC1 (stereo unspecified) : -2.91
Cc1cccnc1NC(=O)CC1(Cn2cnnn2)CCCCC1 : 3.19
Cn1cc(C(=O)NC[C@@H]2OC[C@H]3CN(Cc4ccco4)CC[C@H]32)cn1 : 3.12
COc1c(CNCc2cccc(CS(C)(=O)=O)c2)c(C)nn1C : -0.493
CN1CC(=O)N(c2ccccc2)CC12CCN(Cc1nccs1)C2 (stereo unspecified) : 4.17
CCn1cnnc1C1CCN(C(=O)c2cccc3c2ccn3C)CC1 : 7.77
O=C(C1CCOCC1)N1C[C@@H]2[C@@H](C1)OCC(=O)N2CC1CC1 : -222
CCNc1cc2c(nn1)CCN(C(=O)c1ccc3cc[nH]c3c1)C2 : 8.33

What the record says about Cc1ccc(C)c(NC(=O)c2n[nH]c(-n3cnnc3)n2)c1 : Percent Effect is 6.35

What the record says about O=C(CN1CCC(c2ccnn2CCO)CC1)NCc1cccs1 : Percent Effect is 8.37

What the record says about CCOCC1CN(Cc2ccoc2)Cc2ncn(CC3CC3)c21 (stereo unspecified) : Percent Effect is 4.95

----------
targetOfAssay: Sialic acid-binding Ig-like lectin 9 (Homo sapiens)
experimentSummary: Hs-Siglec9 ALPHAscreen SOP 20170721
Design: scale not given: direction of the effect not stated beside the values
conditionLabel: 10 µM
readoutType: Percent Effect (%)
Kindly answer with a numeric value in %, unit omitted.

The cases that follow already have their Percent Effect on record.
COCCN(C)C(=O)c1ccc(OC)cc1O : 2.75
CCOCC1CN(S(=O)(=O)N(C)C)Cc2cnn(C)c21 (configuration not stated) : 4.27

What the record says about Cc1noc(Cl)c1CCC(=O)N1CCCCC1Cn1cccn1 (configuration not stated) : Percent Effect is -0.589

What the record says about CCc1nc(CN2CCN(c3ncnc4cc(F)ccc34)CC2)no1 : Percent Effect is 2.81

What the record says about O=C(CC1CCCC1)N1CCCC1c1nc(O)cc(-c2ccccn2)n1 (configuration not stated) : Percent Effect is 16.7

What the record says about O=C(CN1CCOC(Cn2cccn2)C1)Nc1nccs1 (configuration not stated) : Percent Effect is 14.3

What the record says about CC(=O)Nc1ccc(CNC2CC(=O)N(Cc3cccc(F)c3)C2)cc1 (configuration not stated) : Percent Effect is 1.06

What the record says about COc1cccc(CN(C)S(=O)(=O)N2CCOCC2)c1 : Percent Effect is -0.478

What the record says about Cc1csc2nc3n(c(=O)c12)CCN(C(=O)c1ccncc1)CC3 : Percent Effect is -3.24

What the record says about N#Cc1cccnc1NCCNC(=O)N1CCCSCC1 : Percent Effect is 3.38

What the record says about Cc1ccc(=O)n(CC2(O)CCN(Cc3ccsc3)CC2)n1 : Percent Effect is -1.02

What the record says about Cc1nnc2n1CCN(C(=O)COCCOc1ccccc1)C2 : Percent Effect is 1.03

----------
# Percent Effect listing for each entry below
Test system: Trypanosoma cruzi
experimentSummary: Trypanosoma cruzi phosphomannomutase and mannose-1-phosphate guanylyltransferase assay
Type: functional
Parameters: scale not given: direction of the effect not stated beside the values
conditionLabel: 10 µM
Kindly answer with a numeric value in %, unit omitted.

The cases that follow already have their Percent Effect on record.
Cc1nc2ccccc2nc1CN1CCCC1Cn1cncn1 (configuration not stated) : 3.23
CCN(CC)c1ccc(C(=O)NCc2cccnc2-n2cncn2)cn1 : 1.86
COc1ccccc1C(=O)NC(C)CC(=O)O (configuration not stated) : 1.74
O=C(c1ccccn1)N1C[C@@H]2CC[C@H](C1)N(C(=O)CCc1cccs1)C2 : 6.59
CC1CN(CC(=O)Nc2nncs2)CCN1Cc1nccn1C (configuration not stated) : -2.69
OC(CN1CCN(c2ncccn2)CC1)c1cccc(F)c1 (configuration not stated) : 4.99

What the record says about Cc1noc([C@@H]2CC[C@@H]3[C@@H](CCN3S(=O)(=O)C3CC3)O2)n1 : Percent Effect is -4.3

What the record says about COCCN1CCC2(CC1)CN(C(=O)N(C)C)c1ccc(C)cc12 : Percent Effect is -3.62

----------
Organism: Homo sapiens
experimentSummary: To identify inhibition of the IFN signalling (Jak-Stat) pathway via expression of an eGFP reporter gene under the control of an IFN-stimulated response element (ISRE) containing MxA promoter.
Assay type: functional
Set-up: scale not given: direction of the effect not stated beside the values
conditionLabel: 30 µM
# Percent Effect listing for each entry below
Kindly answer with a numeric value in %, unit omitted.

The cases that follow already have their Percent Effect on record.
CCCc1noc(CCC(=O)NC(C)c2nnc3n2CCCCC3)n1 (stereo unspecified) : 3.01
CCc1ncncc1C(=O)N1CCOC(c2nc(C)n[nH]2)C1 (stereo unspecified) : 1.37
O=C1CC(c2cccs2)c2cnn(C3CCCC3)c2N1 (stereo unspecified) : 10.9
Cc1ncsc1C(=O)NCCn1nc(C2CCNC2)c2cccnc21 (stereo unspecified) : -2.08
CCC1CN(CC(=O)N2CCC2)CCN1CCOC (stereo unspecified) : 1.78

What the record says about CCCNCC1(O)CCCN(Cc2cccc(C)c2)C1=O (stereo unspecified) : Percent Effect is -21.7

----------
targetOfAssay: Chromo domain-containing protein 1 (Saccharomyces cerevisiae (strain ATCC 204508 / S288c) (Baker's yeast))
experimentSummary: ScCHD-1 Enzyme Inhibition Assay; further: in the data most compounds retested in dose-response had high values
Type: functional
Parameters: scale not given: direction of the effect not stated beside the values
conditionLabel: 30 µM
readoutType: Percent Effect (%)
Kindly answer with a numeric value in %, unit omitted.

What the record says about Cc1ccc(NC(C)C(=O)NCc2cccs2)cc1C (configuration not stated) : Percent Effect is -5.22

What the record says about Cn1cc(CN2CCn3c(CNC(=O)c4cccn4C)cnc3C2)cn1 : Percent Effect is -7.88

What the record says about O=C(c1ccco1)N1CCC2(CCOC2)C1 (configuration not stated) : Percent Effect is -7.58

What the record says about CC(C)c1csc(C2CCCN(C(=O)c3ccc(=O)n(C)n3)C2)n1 (configuration not stated) : Percent Effect is -5.6

What the record says about CCc1cnc(CN2CCCC2c2noc(C3CC3)n2)o1 (configuration not stated) : Percent Effect is -9.7

What the record says about CCOCCCn1c(NC(=O)c2cnn(C)c2)nc2ccccc21 : Percent Effect is -2.58

What the record says about Cc1cnn(CCC(=O)N2CCCN(c3cccnn3)CC2)c1 : Percent Effect is -16.1

What the record says about Cc1cc(C)nc(CCNC(=O)[C@H]2CNC[C@@H](C(=O)N3CCCC3)C2)n1 : Percent Effect is -3.88

What the record says about Cc1cc(CNC(=O)N2CCN(c3nc(C)c(C)s3)CC2)no1 : Percent Effect is -4.46

What the record says about Cn1nc(COc2cccnc2)c2c1CCN(c1cnccn1)C2 : Percent Effect is -3.43

What the record says about CN(C)S(=O)(=O)N1CCC(Oc2cnccn2)CC1 : Percent Effect is -9.34

What the record says about Cc1ccc(NC(=O)N(C)Cc2cnn(C)c2)cc1OCC(F)F : Percent Effect is -16.1
